- assay target: T1, His-tagged, full-length PCSK9 (human, UniProt Q8NBP7 31-692)
- T1 construct: The secreted protein is autocleaved into a prodomain and a catalytic/Cys-rich chain that starts at S153; also called His-PCSK9
- T1 sequence (Q8NBP7 other isoform, or with tags, fused parts or gaps limits assumed): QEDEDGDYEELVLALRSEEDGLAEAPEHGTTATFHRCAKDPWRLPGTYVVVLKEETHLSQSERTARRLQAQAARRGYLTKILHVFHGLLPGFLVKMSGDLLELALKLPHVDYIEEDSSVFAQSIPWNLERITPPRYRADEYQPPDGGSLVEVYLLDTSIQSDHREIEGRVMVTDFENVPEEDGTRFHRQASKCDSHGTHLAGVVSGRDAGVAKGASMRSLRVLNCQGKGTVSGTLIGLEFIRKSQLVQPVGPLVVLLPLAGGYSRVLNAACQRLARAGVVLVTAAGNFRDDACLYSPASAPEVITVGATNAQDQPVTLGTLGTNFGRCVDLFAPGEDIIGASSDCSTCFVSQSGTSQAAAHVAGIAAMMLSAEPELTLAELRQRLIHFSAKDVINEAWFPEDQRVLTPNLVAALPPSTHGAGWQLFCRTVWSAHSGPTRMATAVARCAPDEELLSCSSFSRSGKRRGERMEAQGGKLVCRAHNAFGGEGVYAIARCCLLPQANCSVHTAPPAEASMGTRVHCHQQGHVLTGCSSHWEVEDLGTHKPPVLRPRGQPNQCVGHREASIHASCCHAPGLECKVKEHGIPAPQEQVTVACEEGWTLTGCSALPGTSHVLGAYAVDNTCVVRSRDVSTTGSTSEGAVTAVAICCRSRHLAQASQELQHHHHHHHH
- measurement protocol: TR-FRET competition; His-PCSK9, competitor EGF(A)-Fc
pIC50: −log10 of the molar value. Square brackets hold non-standard residues; d marks the D form. Ends that are not written are not given here. * marks the point of attachment. Trp(6-Br) = N[C@@H](Cc1c[nH]c2cc(Br)ccc12)C(=O)O; Trp(6-Me) = Cc1ccc2c(C[C@H](N)C(=O)O)c[nH]c2c1; hArg = N=C(N)NCCCC[C@H](N)C(=O)O; Pentanoyl = CCCCC(=O)*
Consider the following binders and their measured pIC50 readings.
quantity measured: pIC50

| binder | modifier | value reported |
| --- | --- | --- |
| WNLV[hArg]IGLLQ-NH2 (N-terminus assumed; SMILES CC[C@H](C)[C@H](NC(=O)[C@H](CCCCNC(=N)N)NC(=O)[C@@H](NC(=O)[C@H](CC(C)C)NC(=O)[C@H](CC(N)=O)NC(=O)[C@@H](N)Cc1c[nH]c2ccccc12)C(C)C)C(=O)NCC(=O)N[C@@H](CC(C)C)C(=O)N[C@@H](CC(C)C)C(=O)N[C@@H](CCC(N)=O)C(N)=O, also called WNLV(homoR)IGLLQ-NH2) [Compound 237] | = | 5.06 |
| Ac-DSYPGWNLV[hArg]IGLLR-NH2 (SMILES CC[C@H](C)[C@H](NC(=O)[C@H](CCCCNC(=N)N)NC(=O)[C@@H](NC(=O)[C@H](CC(C)C)NC(=O)[C@H](CC(N)=O)NC(=O)[C@H](Cc1c[nH]c2ccccc12)NC(=O)CNC(=O)[C@@H]1CCCN1C(=O)[C@H](Cc1ccc(O)cc1)NC(=O)[C@H](CO)NC(=O)[C@H](CC(=O)O)NC(C)=O)C(C)C)C(=O)NCC(=O)N[C@@H](CC(C)C)C(=O)N[C@@H](CC(C)C)C(=O)N[C@@H](CCCNC(=N)N)C(N)=O) [Compound 230] | = | 5.64 |
| WNLVRIGTLR (also: further groups not given here, Structure printed only as a drawing) [Compound 184] | = | 4.72 |
| WNLV[hArg]IGLLR (also: further groups not given here, Structure printed only as a drawing) [Compound 211] | = | 4.85 |
| WNLV[hArg]IGLLR (also: further groups not given here, Structure printed only as a drawing) [Compound 206] | = | 5.74 |
| WNLV[hArg]IGLLR (also: further groups not given here, Structure printed only as a drawing) [Compound 210] | = | 5.52 |
| WNLV[hArg]IGLLR (also: further groups not given here, Structure printed only as a drawing) [Compound 220] | = | 4.43 |
| Pentanoyl-[Trp(6-Me)]NLVRIGLTR-NH2 (SMILES CCCCC(=O)N[C@@H](Cc1c[nH]c2cc(C)ccc12)C(=O)N[C@@H](CC(N)=O)C(=O)N[C@@H](CC(C)C)C(=O)N[C@H](C(=O)N[C@@H](CCCNC(=N)N)C(=O)N[C@H](C(=O)NCC(=O)N[C@@H](CC(C)C)C(=O)N[C@H](C(=O)N[C@@H](CCCNC(=N)N)C(N)=O)[C@@H](C)O)[C@@H](C)CC)C(C)C) [Compound 175] | ≤ | 4.30 |
| Pentanoyl-[Trp(6-Br)]NLVRIGLTR-NH2 (SMILES CCCCC(=O)N[C@@H](Cc1c[nH]c2cc(Br)ccc12)C(=O)N[C@@H](CC(N)=O)C(=O)N[C@@H](CC(C)C)C(=O)N[C@H](C(=O)N[C@@H](CCCNC(=N)N)C(=O)N[C@H](C(=O)NCC(=O)N[C@@H](CC(C)C)C(=O)N[C@H](C(=O)N[C@@H](CCCNC(=N)N)C(N)=O)[C@@H](C)O)[C@@H](C)CC)C(C)C) [Compound 187] | = | 4.59 |
| WNLVRIGLTR (also: further groups not given here, Structure printed only as a drawing) [Compound 169] | ≤ | 4.30 |
| WNLVRIGLTR (also: further groups not given here, Structure printed only as a drawing) [Compound 188] | = | 4.66 |
| WNLVRIGLTR (also: further groups not given here, Structure printed only as a drawing) [Compound 162] | ≤ | 4.30 |
| WNLVRIGLLR (also: further groups not given here, Structure printed only as a drawing) [Compound 132] | ≤ | 4.30 |
| Ac-MESFPGWNLV[hArg]IGLLR-NH2 (SMILES CC[C@H](C)[C@H](NC(=O)[C@H](CCCCNC(=N)N)NC(=O)[C@@H](NC(=O)[C@H](CC(C)C)NC(=O)[C@H](CC(N)=O)NC(=O)[C@H](Cc1c[nH]c2ccccc12)NC(=O)CNC(=O)[C@@H]1CCCN1C(=O)[C@H](Cc1ccccc1)NC(=O)[C@H](CO)NC(=O)[C@H](CCC(=O)O)NC(=O)[C@H](CCSC)NC(C)=O)C(C)C)C(=O)NCC(=O)N[C@@H](CC(C)C)C(=O)N[C@@H](CC(C)C)C(=O)N[C@@H](CCCNC(=N)N)C(N)=O) [Compound 229] | = | 6.09 |
